So I've got a bunch of compounds here, and I need their normalized growth values.
# assay comment: chemical genetic growth profiling, strain panel (AID 1159580);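 also: tested at 20 µM; growth read once vehicle control cultures reached saturation at 30 °C; 1 = growth at the plate median or of vehicle wells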
# reported conditions: S. cerevisiae deletion strains, growth OD, locus YAL013W, strain DEP1, stronger effect = lower value
The campaign covered roughly 5,500 compounds. About 2,000 (36%) were called active. Not shown: some 18% with an inconclusive outcome. Some of the results follow.

// solved cases for normalized growth follow
{"compound": "CCCC[C@@]1(C2CCCC2)Cc2cc(OCC(=O)O)c(Cl)c(Cl)c2C1=O", "observed": "1.02 (inactive)"}
{"compound": "OCC1NCC(O)C(O)C1O (stereo not given)", "observed": "1.02 (inactive)"}
{"compound": "C=C(CC)C(=O)c1ccc(OCC(=O)O)c(Cl)c1Cl", "observed": "0.984 (inactive)"}
{"compound": "CCn1nc(C)c(Br)c1-c1nc(-c2ccc(C(F)(F)F)cc2)no1", "observed": "1 (inactive)"}

Req: # get_value(readout='normalized growth', item= CO[C@H]1/C=C/O[C@@]2(C)Oc3c(C)c(O)c4c(O)c(c(/C=N/N5CCN(C)CC5)c(O)c4c3C2=O)NC(=O)/C(C)=C\C=C\C(C)[C@H](O)[C@@H](C)[C@@H](O)[C@@H](C)[C@@H](OC(C)=O)[C@@H]1C (stereo not given in full) )
Resp: 1 (inactive)

---

# assay comment: chemical genetic growth profiling, strain panel (AID 1159580)
# reported conditions: S. cerevisiae deletion strains, growth OD, locus YFR010W, strain ubp6
The whole screen tested about 5,500 compounds, of which about 2,000 (36%) were called active. About 18% were inconclusive and are not listed. No stated cut-off is given here; in the data, active means normalized growth mostly below about 0.91 (no sharp cut-off); inconclusive means no clear call, values can overlap the other calls; inactive means mostly above about 0.92. The list shows a part of the results.
Assign a class; possible classes are active, inactive

The following compounds have reported results that may help.
{"compound": "N[C@@H](Cc1ccc(O)c(O)c1)C(=O)O", "category label": "inactive"}
{"compound": "Nc1ccc(C(=O)NCC(=O)O)cc1", "category label": "inactive"}
{"compound": "Cc1occc(=O)c1O", "category label": "inactive"}
{"compound": "CS(=O)(=O)CCCCN=C=S", "category label": "active"}
{"compound": "CC(=O)O[C@H]1C[C@@H](OC(C)=O)C(C)(C)C2C[C@@H](OC(C)=O)[C@@]3(C)C4=CC(=O)O[C@@H](c5ccoc5)[C@]4(C)CCC3[C@]21C (some centres not stated)", "category label": "inactive"}

Kindly review the next compound as well.
Req: State the result this test recorded for "CN/C(=C\[N+](=O)[O-])NCCSCc1ccc(CN(C)C)o1" .
Resp: inactive

---

# assay comment: chemical genetic growth profiling, strain panel (AID 1159580)
# reported conditions: S. cerevisiae deletion strains, growth OD, locus YNR030W, strain Alg12
Out of some 5,500 compounds screened, about 2,000 (36%) were called active. Roughly 18% stayed inconclusive and do not appear here. No stated cut-off is given here; in the data, active means normalized growth mostly below about 0.91 (no sharp cut-off); inconclusive means no clear call, values can overlap the other calls; inactive means mostly above about 0.92. This is one part of the list.
Assign a class; possible classes are active, inactive

The following compounds have reported results that may help.
{"compound": "NC(=NS(=O)(=O)c1cc(C(F)(F)F)cc(C(F)(F)F)c1)c1cccs1", "category label": "inactive"}
{"compound": "CCCc1cc(Br)c(-n2cccc2)c(Br)c1", "category label": "inactive"}
{"compound": "c1ccc2c(c1)CCc1c-2[nH]c2ccccc12", "category label": "active"}
{"compound": "COc1ccc(CCNC(=S)Nc2cccc(C(F)(F)F)c2)cc1OC", "category label": "inactive"}
{"compound": "CC1C(c2ccccc2)OCCN1CN1C(=O)c2ccccc2C1=O (stereo not given)", "category label": "inactive"}

Req: State the result this test recorded for "COc1ccc(-c2c(C)nc3ccc(Cl)cc3c2-c2ccccc2)cc1OC" .
Resp: inactive

Req: State the result this test recorded for "Clc1cc(Cl)c(Cl)c(-n2cccc2)c1Cl" .
Resp: active

Req: State the result this test recorded for "O=C(Nc1ccc(C(F)(F)F)cc1)Nc1ccccc1C(=O)O" .
Resp: inactive

Req: State the result this test recorded for "Clc1cc(Cl)cc(-n2cccc2)c1" .
Resp: inactive

Req: State the result this test recorded for "CC(=O)N/C(=C/c1ccc2c(c1)OCO2)C(=O)O" .
Resp: inactive

---

# assay comment: chemical genetic growth profiling, strain panel (AID 1159580);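 also: tested at 20 µM; growth read once vehicle control cultures reached saturation at 30 °C; 1 = growth at the plate median or of vehicle wells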
# reported conditions: S. cerevisiae deletion strains, growth OD, locus YNL298W, strain CLA4, stronger effect = lower value
In all, about 5,500 compounds went through this assay and about 2,000 (36%) were called active. Roughly 18% stayed inconclusive and do not appear here. The list shows a part of the results.
So I've got a bunch of molecules here, and I need their normalized growth values.

// solved cases for normalized growth follow
{"molecule": "Cc1ccc(/C(=C\\CN2CCCC2)c2ccccn2)cc1", "normalized growth": "1 (inactive)"}
{"molecule": "CCCC(C)C1(CC)C(=O)N=C(S)NC1=O (configuration not stated)", "normalized growth": "0.372 (active)"}
{"molecule": "Oc1c(I)cc(I)c2cccnc12", "normalized growth": "0.271 (active)"}

Hi, could you look up normalized growth for each item in my list?
1. CN(C)CCOC(C)(c1ccccc1)c1ccccn1 (configuration not stated)
2. CN/C(=C\[N+](=O)[O-])NCCSCc1ccc(CN(C)C)o1
3. NCCCC[C@H](N[C@@H](CCc1ccccc1)C(=O)O)C(=O)N1CCC[C@H]1C(=O)O
4. O=C(O)c1ccccc1Nc1cccc(C(F)(F)F)c1
5. CCN(CC)CCNC(=O)c1cc(S(C)(=O)=O)ccc1OC

Resp:
0.989 (inactive)
1 (inactive)
0.993 (inactive)
0.928 (inactive)
1.01 (inactive)

---

So I've got a bunch of compounds here, and I need their normalized growth values.
# assay comment: chemical genetic growth profiling, strain panel (AID 1159580);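 also: tested at 20 µM; growth read once vehicle control cultures reached saturation at 30 °C; 1 = growth at the plate median or of vehicle wells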
# reported conditions: S. cerevisiae deletion strains, growth OD, locus YEL061C, strain CIN8 (second series), stronger effect = lower value
Out of some 5,500 compounds screened, about 2,000 (36%) were called active. About 18% were inconclusive and are not listed. This is one part of the list.
One number for each entry.

{"compound": "O=C(O)/C=C/C=C/c1ccccc1", "normalized growth": 0.763}
{"compound": "CCOP(=S)(OCC)SCn1c(=O)oc2cc(Cl)ccc21", "normalized growth": 0.96}
{"compound": "O=C1C=CC2=C3c4cc(O)c(O)cc4CC3(O)COC2=C1O (configuration not stated)", "normalized growth": 1.04}
{"compound": "Nc1ccc(S(=O)(=O)Nc2ccc(Cl)nn2)cc1", "normalized growth": 0.992}
{"compound": "CCOC(=O)c1oc2c(OC)c(O)cc(O)c2c(=O)c1-c1cc(OC)c(OC)c(OC)c1", "normalized growth": 0.978}

Hi, could you look up normalized growth for each item in my list?
1. CC(=O)/C(=C\c1ccccc1)CC(=O)O
2. O=[N+]([O-])c1ccc(O)c([N+](=O)[O-])c1
3. Nc1ccc([As](=O)(O)O)cc1
4. CS(=O)(=O)CCCCN=C=S
5. O=[N+]([O-])c1cc([As](=O)(O)O)ccc1O
6. COc1ccccc1OCCNCC(O)COc1cccc2[nH]c3ccccc3c12 (configuration not stated)
7. O=C(O[C@@H]1Cc2c(O)cc(O)cc2O[C@@H]1c1cc(O)c(O)c(O)c1-c1c([C@H]2Oc3cc(O)cc(O)c3C[C@H]2O)cc(O)c(O)c1O)c1cc(O)c(O)c(O)c1

Resp:
[0.989, 0.794, 0.997, 0.853, 0.971, 1, 1.02]

---

# assay comment: chemical genetic growth profiling, strain panel (AID 1159580);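 also: tested at 20 µM; growth read once vehicle control cultures reached saturation at 30 °C; 1 = growth at the plate median or of vehicle wells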
# reported conditions: S. cerevisiae deletion strains, growth OD, locus YDR001C, strain nth1, stronger effect = lower value
In all, about 5,500 compounds went through this assay and about 2,000 (36%) were called active. Another 18% or so got no clear call; they are omitted. The list shows a part of the results.
So I've got a bunch of compounds here, and I need their normalized growth values.
Numbers only.

// solved cases for normalized growth follow
{"compound": "O=C(O)CF", "normalized growth": 1.02}
{"compound": "Oc1c(Br)cc(Br)c2cccnc12", "normalized growth": 0.0572}
{"compound": "Oc1c(Cl)cc(Cl)c2cccnc12", "normalized growth": 0.0589}
{"compound": "CC(=O)O[C@@H]1CC2C(C)(C)C=CC(=O)[C@]2(C)C2CC[C@@]3(C)[C@H](c4ccoc4)OC(=O)C4OC43[C@@]21C (stereo not given in full)", "normalized growth": 0.995}
{"compound": "CC(=O)O[C@@H]1C[C@@]2(C)[C@H](c3ccoc3)C[C@H]3O[C@]32[C@]2(C)C(=O)C(O)=C3C(C)(C)C(=O)C=C[C@]3(C)C12 (stereo not given in full)", "normalized growth": 0.968}
{"compound": "Oc1ccc(Cl)c2cccnc12", "normalized growth": 0.113}
{"compound": "C=C(CC)C(=O)c1ccc(OCC(=O)O)c(Cl)c1Cl", "normalized growth": 1}
{"compound": "CC1(C)C(=O)C=C[C@@]2(C)C1=C(O)C(=O)[C@]1(C)C2CC[C@@]2(C)[C@H](c3ccoc3)C[C@H]3O[C@]321 (stereo not given in full)", "normalized growth": 0.967}
{"compound": "CS(=O)(=O)CCCCN=C=S", "normalized growth": 0.896}

Then there is this compound:
Req: # get_value(readout='normalized growth', item= "CCOC(=O)c1oc2c(OC)c(O)cc(O)c2c(=O)c1-c1cc(OC)c(OC)c(OC)c1" )
Resp: 0.982
